Tested on: MO/Mphi
method: Concentration that provides 50% protection in the MO/Mphi cells infected with HIV-1 ADA strain
Assay type: functional, cell-based
measurement-context: Homo sapiens
measurement-name: pEC50
One number for each entry, as −log10 of the molar value.

**Q:** // output pEC50; input CCCCCC=C(c1cc(Br)c(OC)c(C(=O)OC)c1)c1cc(Br)c(OC)c(C(=O)OC)c1 ; system MO/Mphi
**A:** 5.73

###

Test system: PBL
method: Concentration that provides 50% protection in the PBL cells infected with HIV-1 WEJO strain
Type: functional, cell-based
measurement-context: Homo sapiens
measurement-name: EC50
Write the numeric value and append its unit.

**Q:** For the compound CCCCCC=C(c1cc(Br)c(OC)c(C(=O)OC)c1)c1cc(Br)c(OC)c(C(=O)OC)c1 , report EC50.
**A:** 10.2 µM

###

Tested on: MT4
method: Concentration that provides 50% protection in the MT-4 cells infected with nevirapine-resistant HIV-1 N119 strain
Type: functional, cell-based
measurement-context: Homo sapiens
measurement-name: pEC50
Answers are plain numbers, as −log10 of the molar value.

**Q:** Check the records and state pEC50 for CCCCCC=C(c1cc(Br)c(OC)c(C(=O)OC)c1)c1cc(Br)c(OC)c(C(=O)OC)c1
**A:** 3.82

###

Tested on: MT4
method: Concentration that results in 50% death of MT-4 cells infected with HIV-1 6S strain; no toxicity was observed
Assay type: functional, cell-based
measurement-context: Homo sapiens
measurement-name: IC50

**Q:** Answer briefly: IC50 recorded on MT4 for CCCCCC=C(c1cc(Br)c(OC)c(C(=O)OC)c1)c1cc(Br)c(OC)c(C(=O)OC)c1
**A:** > 200 µM

###

Tested on: PBL
method: Concentration that provides 50% protection in the PBL cells infected with HIV-1 BAKI strain
Type: functional, cell-based
measurement-context: Homo sapiens
measurement-name: pEC50
One number for each entry, as −log10 of the molar value.

**Q:** Could you please provide reported pEC50 for CCCCCC=C(c1cc(Br)c(OC)c(C(=O)OC)c1)c1cc(Br)c(OC)c(C(=O)OC)c1 ? Thanks!
**A:** 4.82

###

Test system: MT4
method: Concentration that provides 50% protection in the MT-4 cells infected with AZT-resistant HIV-1 6S strain
Assay type: functional, cell-based
measurement-context: Homo sapiens
measurement-name: pEC50
Give bare numbers, as −log10 of the molar value.

**Q:** Write pEC50 of CCCCCC=C(c1cc(Br)c(OC)c(C(=O)OC)c1)c1cc(Br)c(OC)c(C(=O)OC)c1 ; system used: MT4
**A:** 6.25

Recorded values, source ChEMBL document CHEMBL1149920.
